# test: Plasma pharmacokinetics of CUDC-101 and metabolite in patients
# Type: in vivo, human
# protocol.conditions: human, plasma, iv, 225 mg/m2
recorded.metric: half-life (h)
Give bare numbers, in h.

The reported value for "C#Cc1cccc(Nc2ncnc3cc(OC)c(OCCCCCCC(=O)NO)cc23)c1" in terms of half-life is 2.83

----------
# test: Plasma pharmacokinetics of CUDC-101 and metabolite in patients
# Assay type: in vivo, human
# protocol.conditions: human, plasma, iv, 275 mg/m2
recorded.metric: Vd (L)
Answers are plain numbers, in L.

The reported value for C#Cc1cccc(Nc2ncnc3cc(OC)c(OCCCCCCC(=O)NO)cc23)c1 [CUDC-101] in terms of Vd is 42.3

----------
# test: Plasma pharmacokinetics of CUDC-101 and metabolite in patients
# Format: in vivo, human
# protocol.conditions: human, plasma, iv, 225 mg/m2
recorded.metric: Tmax (min)
Give bare numbers, in min.

The reported value for "C#Cc1cccc(Nc2ncnc3cc(OC)c(OCCCCCCC(=O)NO)cc23)c1" in terms of Tmax is 32.5

----------
# test: Plasma pharmacokinetics of CUDC-101 and metabolite in patients
# Assay type: in vivo, human
# protocol.conditions: human, plasma, iv, 225 mg/m2
recorded.metric: clearance

The reported value for C#Cc1cccc(Nc2ncnc3cc(OC)c(OCCCCCCC(=O)NO)cc23)c1 [CUDC-101] in terms of clearance is 938 mL/min

----------
# test: Plasma pharmacokinetics of CUDC-101 and metabolite in patients
# Assay type: in vivo, human
# protocol.conditions: human, plasma, iv, 225 mg/m^2
recorded.metric: half-life (h)
Numbers only, in h.

The reported value for "C#Cc1cccc(Nc2ncnc3cc(OC)c(OCCCCCCC(=O)NO)cc23)c1" in terms of half-life is 3.91

----------
# test: Plasma pharmacokinetics of CUDC-101 and metabolite in patients
# Assay type: in vivo, human
# protocol.conditions: human, plasma, iv, 275 mg/m2
recorded.metric: half-life (h)
Answers are plain numbers, in h.

The reported value for "C#Cc1cccc(Nc2ncnc3cc(OC)c(OCCCCCCC(=O)NO)cc23)c1" in terms of half-life is 2.88

Data origin: paper PMC6607903
